For each entry below, report its growth inhibition value.
# Test system: SUDIPGXIII (diffuse intrinsic pontine glioma line)
# assay.protocol: growth inhibition (% activity, log2 RLU normalised to DMSO / staurosporine); higher = more growth inhibition
# settings: 33 µM
Could you give me the number in %? Just the number is fine.

Input C[C@]12CC[C@@H]3c4ccc(O)cc4CC[C@H]3[C@@H]1CCC2=O , output reported growth inhibition.
-0.509

Input CC[C@H](C)C(=O)O[C@H]1C[C@H](O)C=C2C=C[C@H](C)[C@H](CC[C@@H](O)C[C@@H](O)CC(=O)O)[C@H]21 , output reported growth inhibition.
2.62

Input CC1=C(C(=O)OC(C)C)C(c2cccc([N+](=O)[O-])c2)C(C(=O)OC2CN(C(c3ccccc3)c3ccccc3)C2)=C(N)N1 (stereo unspecified) , output reported growth inhibition.
11.7

Input CCCCOc1ccc(C(=O)CCN2CCCCC2)cc1 , output reported growth inhibition.
1.44

Input Cc1cc(-n2c(=O)[nH]c(=O)n(C)c2=O)ccc1Oc1ccc(SC(F)(F)F)cc1 , output reported growth inhibition.
-0.649

Input COc1ccc2c(c1OC)C(=O)O[C@@H]2[C@H]1c2c(cc3c(c2OC)OCO3)CCN1C , output reported growth inhibition.
1.03

Input CCC1=C(C)CN(C(=O)NCCc2ccc(S(=O)(=O)NC(=O)N[C@H]3CC[C@H](C)CC3)cc2)C1=O , output reported growth inhibition.
0.817

Input COc1cnc(NS(=O)(=O)c2ccc(N)cc2)nc1 , output reported growth inhibition.
1.01

Input COc1ccc(C2C(=O)c3ccccc3C2=O)cc1 , output reported growth inhibition.
1.54

Input CCCCCOC(=O)Nc1nc(=O)n([C@@H]2O[C@H](C)[C@@H](O)[C@H]2O)cc1F , output reported growth inhibition.
1.54

Input c1ccc2c(c1)CCCC2C1=NCCN1 (stereo unspecified) , output reported growth inhibition.
0.717

Input CCOC(=O)N1CCC(=C2c3ccc(Cl)cc3CCc3cccnc32)CC1 , output reported growth inhibition.
0.514

Input CCc1nc(N)nc(N)c1-c1ccc(Cl)cc1 , output reported growth inhibition.
4.01

Input N=C(N)N , output reported growth inhibition.
-1.47

Input CC(=O)OCC(=O)[C@@]1(O)CC[C@H]2[C@@H]3CCC4=CC(=O)C=C[C@]4(C)[C@@]3(Cl)[C@@H](Cl)C[C@@]21C , output reported growth inhibition.
1.64

Input C[N+](C)(C)CCCCCC[N+](C)(C)C , output reported growth inhibition.
0.369

Input C=CCNC(N)=S , output reported growth inhibition.
-0.232

Input NC[C@H]1O[C@H](O[C@H]2[C@H](O)[C@@H](O[C@H]3O[C@H](CO)[C@@H](O)[C@H](N)[C@H]3O)[C@H](N)C[C@@H]2N)[C@H](N)C[C@@H]1O , output reported growth inhibition.
-17.5

Input O=C1c2ccccc2C(=O)C1c1ccccc1 , output reported growth inhibition.
0.357

Input Nc1nccs1 , output reported growth inhibition.
0.0518

Input CCc1oc2ccccc2c1C(=O)c1cc(Br)c(O)c(Br)c1 , output reported growth inhibition.
2.79

---

# System: DIPGX29 (H3.3 K27M diffuse intrinsic pontine glioma line)
# assay.protocol: growth inhibition (% activity, log2 RLU normalised to DMSO / staurosporine); higher = more growth inhibition
# settings: 33 µM
For each entry below, report its growth inhibition value.
Could you give me the number in %? Just the number is fine.

Input CO/N=C(\C(=O)N[C@@H]1C(=O)N2C(C(=O)O)=C(CSC(=O)c3ccco3)CS[C@H]12)c1csc(N)n1 , output reported growth inhibition.
-1.65

Input Cc1cc2c(s1)Nc1ccccc1N=C2N1CCN(C)CC1 , output reported growth inhibition.
1.66

Input C[C@]12CCC(=O)C=C1CC[C@@H]1[C@@H]2[C@@H](O)C[C@@]2(C)[C@H]1CC[C@]2(O)C(=O)CO , output reported growth inhibition.
1.76

Input CCOC(=O)[C@H](CCc1ccccc1)N[C@@H](C)C(=O)N1CCC[C@H]1C(=O)O , output reported growth inhibition.
1.73

Input CC(C)C[C@H](NC(=O)[C@H](O)[C@H](N)Cc1ccccc1)C(=O)O , output reported growth inhibition.
1.26

Input NCCC(O)(P(=O)(O)O)P(=O)(O)O , output reported growth inhibition.
0.943

Input C[N+]1(C)[C@@H]2C[C@@H](OC(=O)C(O)(c3cccs3)c3cccs3)C[C@H]1[C@@H]1O[C@@H]12 , output reported growth inhibition.
-2.02

Input CC1=CC(=O)c2ccccc2C1=O , output reported growth inhibition.
2.41

Input CN[C@@H]1[C@H](O[C@H]2[C@H](O[C@H]3[C@H](O)[C@@H](O)[C@H](N=C(N)N)[C@@H](O)[C@@H]3N=C(N)N)O[C@@H](C)[C@]2(O)C=O)O[C@@H](CO)[C@H](O)[C@H]1O , output reported growth inhibition.
0.0944

---

For each entry below, report its growth inhibition value.
# Test system: DIPGX7 (H3.3 K27M diffuse intrinsic pontine glioma line)
# assay.protocol: growth inhibition (% activity, log2 RLU normalised to DMSO / staurosporine); higher = more growth inhibition
# settings: 33 µM
Could you give me the number in %? Just the number is fine.

Input COc1cccc2c1C(=O)c1c(O)c3c(c(O)c1C2=O)C[C@@](O)(C(C)=O)C[C@@H]3O[C@H]1C[C@H](N)[C@H](O)[C@H](C)O1 , output reported growth inhibition.
54.9

Input N#CC1(c2ccc(NC(=O)c3cccnc3NCc3ccncc3)cc2)CCCC1 , output reported growth inhibition.
2.91

Input Clc1ccc(CCC(Cn2ccnc2)Sc2c(Cl)cccc2Cl)cc1 (stereo not given) , output reported growth inhibition.
3.57

Input CCC(=O)OCC(=O)[C@@]1(OC(=O)CC)[C@@H](C)C[C@H]2[C@@H]3CCC4=CC(=O)C=C[C@]4(C)[C@@]3(Cl)[C@@H](O)C[C@@]21C , output reported growth inhibition.
1.9

Input CN(CCOc1ccc(NS(C)(=O)=O)cc1)CCc1ccc(NS(C)(=O)=O)cc1 , output reported growth inhibition.
0.833

Input COCCOC(=O)C1=C(C)NC(C)=C(C(=O)OC(C)C)C1c1cccc([N+](=O)[O-])c1 (stereo not given) , output reported growth inhibition.
-0.466

Input CSc1nc2cc(Cl)c(Oc3cccc(Cl)c3Cl)cc2[nH]1 , output reported growth inhibition.
-0.253

Input CNCCC(Oc1ccc(C(F)(F)F)cc1)c1ccccc1 (stereo not given) , output reported growth inhibition.
1.4

Input CN1CCN(CCCN2c3ccccc3Sc3ccc(Cl)cc32)CC1 , output reported growth inhibition.
9.7

Input Cc1cccc(C)c1OCC(C)N (stereo not given) , output reported growth inhibition.
-1.91

Input O=C(O)C[C@H](O)C[C@H](O)/C=C/c1c(C2CC2)nc2ccccc2c1-c1ccc(F)cc1 , output reported growth inhibition.
38.6

Input CCN(CC)CC(=O)Nc1c(C)cccc1C , output reported growth inhibition.
2.14

Input CCCNC(C)C(=O)Nc1c(C)csc1C(=O)OC (stereo not given) , output reported growth inhibition.
1.5

Input CC[C@H](C)C(=O)O[C@H]1C[C@@H](C)C=C2C=C[C@H](C)[C@H](CC[C@@H]3C[C@@H](O)CC(=O)O3)[C@H]21 , output reported growth inhibition.
8.58

Input CCOC(=O)O[C@]1(C(=O)OCCl)CC[C@H]2[C@@H]3CCC4=CC(=O)C=C[C@]4(C)[C@H]3[C@@H](O)C[C@@]21C , output reported growth inhibition.
2.28

Input COc1cc(C(C)=O)ccc1OCCCN1CCC(c2noc3cc(F)ccc23)CC1 , output reported growth inhibition.
12.7

Input O=C(NC(Cc1cc(=O)[nH]c2ccccc12)C(=O)O)c1ccc(Cl)cc1 (stereo not given) , output reported growth inhibition.
-1.26

Input CC(=O)Oc1cc(C(F)(F)F)ccc1C(=O)O , output reported growth inhibition.
-1.55

Input CN[C@H]1CC[C@@H](c2ccc(Cl)c(Cl)c2)c2ccccc21 , output reported growth inhibition.
6.25

Input Cc1cc(=O)n(-c2ccccc2)n1C , output reported growth inhibition.
-1.9

---

# System: HGGX6 (H3.3 G34R paediatric high-grade glioma line)
# assay.protocol: growth inhibition (% activity, log2 RLU normalised to DMSO / staurosporine); higher = more growth inhibition
# settings: 33 µM
For each entry below, report its growth inhibition value.
Could you give me the number in %? Just the number is fine.

State, for HGGX6, measured growth inhibition of the compound listed here: C[C@@H](O)[C@H]1C(=O)N2C(C(=O)O)=C(S[C@@H]3CN[C@H](C(=O)N(C)C)C3)[C@H](C)[C@H]12
-3.05

State, for HGGX6, measured growth inhibition of the compound listed here: CCCCCCNC(=O)n1cc(F)c(=O)[nH]c1=O
9.38

State, for HGGX6, measured growth inhibition of the compound listed here: CCOc1ccc2ccccc2c1C(=O)N[C@@H]1C(=O)N2[C@@H]1SC(C)(C)[C@@H]2C(=O)O
-5.66

State, for HGGX6, measured growth inhibition of the compound listed here: Nc1nc(=O)c2c([nH]1)NC[C@H](CNc1ccc(C(=O)N[C@@H](CCC(=O)O)C(=O)O)cc1)N2C=O
0.872

State, for HGGX6, measured growth inhibition of the compound listed here: CN1CC2c3ccccc3Oc3ccc(Cl)cc3C2C1 (stereo not given)
0.239

State, for HGGX6, measured growth inhibition of the compound listed here: N#CC(c1ccc(Cl)cc1)c1c(Cl)cc(-n2ncc(=O)[nH]c2=O)cc1Cl (stereo not given)
-3.94

State, for HGGX6, measured growth inhibition of the compound listed here: OCCN(CCO)c1nc(N2CCCCC2)c2nc(N(CCO)CCO)nc(N3CCCCC3)c2n1
1.04

State, for HGGX6, measured growth inhibition of the compound listed here: OCCOCCN1CCN(C2=Nc3ccccc3Sc3ccccc32)CC1
2.19

State, for HGGX6, measured growth inhibition of the compound listed here: CCN(CC)C(=O)/C(C#N)=C/c1cc(O)c(O)c([N+](=O)[O-])c1
-0.625

State, for HGGX6, measured growth inhibition of the compound listed here: N[C@H](Cc1ccccc1)C(=O)O
0.895

Every entry's value here was drawn from the supplement of paper PMC8253809.
